A collection of molecules and their measured melting point

Below: 4 molecules and their reported melting point.
{"columns": ["molecule", "recorded_value"],
 "data": [
  ["O=C(NCc1ccc(F)cc1)N1C[C@H](c2ccccc2)N2C(=O)OC(c3ccccc3)(c3ccccc3)[C@H]2C1", "105 to 107 °C"],
  ["O=C(NCc1ccc(F)cc1)N1CCN2C(=O)OC3(c4ccccc4-c4ccccc43)C2C1 (centres unmarked)", "120 to 123 °C"],
  ["CCCC1(CCC)OC(=O)N2CCN(C(=O)NCc3ccc(F)cc3)CC21 (centres unmarked)", "74 to 77 °C"],
  ["Cc1ccccc1C1(c2ccccc2C)OC(=O)N2CCN(C(=O)NCc3ccc(F)cc3)CC21 (centres unmarked)", "217 to 219 °C"]
]}

Here is another molecule to look at.
Prompt: Reported melting point for N=C(NCc1ccccc1)N1CCN2C(=O)OC(c3ccccc3)(c3ccccc3)C2C1 (centres unmarked) : what is it?
Completion: 68 to 69 °C

---

Overview of reported melting point across a group of compounds:

Below, 5 compounds whose answers are already recorded.
{"columns": ["compound", "melting point"],
 "data": [
  ["CN(C)c1ccc(C2(c3ccc(N(C)C)cc3)OC(=O)N3CCN(C(=O)NCc4ccc(F)cc4)CC32)cc1 (centres unmarked)", "110 to 113 °C"],
  ["O=C(NCc1ccc(F)cc1)N1CCN2C(=O)OC(c3ccc(F)cc3)(c3ccc(F)cc3)C2C1 (centres unmarked)", "104 to 107 °C"],
  ["Cc1ccc(C2(c3ccc(C)cc3)OC(=O)N3CCN(C(=O)NCc4ccc(F)cc4)CC32)cc1 (centres unmarked)", "89 to 90 °C"],
  ["COc1ccccc1C1(c2ccccc2OC)OC(=O)N2CCN(C(=O)NCc3ccc(F)cc3)CC21 (centres unmarked)", "172 to 173 °C"],
  ["C[C@H]1CN(C(=O)NCc2ccc(F)cc2)C[C@H]2N1C(=O)OC2(c1ccccc1)c1ccccc1", "153 to 156 °C"]
]}

Prompt: Please give the measured melting point for this compound: O=C(NCc1ccc(F)cc1)N1CCN2C(=O)OC(c3ccc(Cl)cc3)(c3ccc(Cl)cc3)C2C1 (centres unmarked)
Completion: 77 to 79 °C

Prompt: Now consider N=C(NCc1ccc(F)cc1)N1CCN2C(=O)OC(c3ccccc3)(c3ccccc3)C2C1 (centres unmarked) and answer again.
Completion: 82 to 85 °C

Prompt: Again, but for O=C(NCc1ccc(F)cc1)N1CCN2C(=O)OC(C3CCCCC3)(C3CCCCC3)C2C1 (centres unmarked)
Completion: 94 to 95 °C
